# studyTarget: Peroxisome proliferator-activated receptor alpha (Mus musculus, UniProt P23204)
# Sequence (P23204 whole entry): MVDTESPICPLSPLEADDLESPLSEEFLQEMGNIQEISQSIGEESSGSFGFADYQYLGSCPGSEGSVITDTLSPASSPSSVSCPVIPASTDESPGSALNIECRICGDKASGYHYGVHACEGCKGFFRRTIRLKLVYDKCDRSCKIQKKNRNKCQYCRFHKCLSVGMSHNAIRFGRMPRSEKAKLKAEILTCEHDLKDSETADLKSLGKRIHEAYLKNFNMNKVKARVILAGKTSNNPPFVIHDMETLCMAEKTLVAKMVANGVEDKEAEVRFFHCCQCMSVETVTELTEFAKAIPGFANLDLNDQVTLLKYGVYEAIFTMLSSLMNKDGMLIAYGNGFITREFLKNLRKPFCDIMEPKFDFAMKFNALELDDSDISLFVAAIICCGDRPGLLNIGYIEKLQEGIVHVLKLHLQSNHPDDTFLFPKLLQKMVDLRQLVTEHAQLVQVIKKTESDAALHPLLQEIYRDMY
# protocol: In vitro inhibition of mouse Peroxisome proliferator activated receptor alpha
pIC50: recorded values
Note on pIC50: it is the negative log10 of concentration, concentration in mol/L.

Use these answered entries as a reference point.
| molecule | recordedValue |
| --- | --- |
| Cc1oc(-c2cccc(-c3ccccc3)c2)nc1CCOc1ccc(CC(C)(Oc2ccc(C(C)(C)C)cc2)C(=O)O)cc1 (centres undefined) | 6.84 |
| Cc1oc(-c2ccc(-c3ccccc3)cc2)nc1CCOc1ccc(CC(C)(Oc2ccc(C(C)(C)C)cc2)C(=O)O)cc1 (centres undefined) | 6.15 |
| Cc1ccc(OC(C)(Cc2ccc(OCCc3nc(-c4cccc(-c5ccccc5)c4)oc3C)cc2)C(=O)O)cc1 (centres undefined) | 6.28 |

Attention now shifts to the item below.
Consider the molecule Cc1oc(-c2ccc(-c3ccccc3)cc2)nc1CCOc1ccc(CC(C)(Oc2ccccc2)C(=O)O)cc1 (centres undefined) and give its measured pIC50.
5.15

Attribution: ChEMBL document CHEMBL1138731
